Where do the numbers come from? From patent US9315546B2.

system: Ghrelin/GHRP/GHS Receptor (Rattus norvegicus, UniProt O08725)
Sequence (O08725 whole entry): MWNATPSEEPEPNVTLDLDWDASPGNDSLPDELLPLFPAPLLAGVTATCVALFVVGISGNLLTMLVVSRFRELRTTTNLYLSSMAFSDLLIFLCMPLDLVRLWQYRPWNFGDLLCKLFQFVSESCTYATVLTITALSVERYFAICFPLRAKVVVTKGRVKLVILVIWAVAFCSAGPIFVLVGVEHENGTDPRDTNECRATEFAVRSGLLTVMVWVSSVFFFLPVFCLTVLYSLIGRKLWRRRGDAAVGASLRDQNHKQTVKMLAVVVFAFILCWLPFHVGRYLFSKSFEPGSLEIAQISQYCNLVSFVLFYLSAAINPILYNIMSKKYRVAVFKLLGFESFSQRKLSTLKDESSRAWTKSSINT
testName: In vivo GH release in rat after i.v. peptide (serum GH by RIA)
details: Table 3; peptide alone 30 μg i.v.
Where no end group is shown, it is not given here. [ ]: non-standard residue; d: D form. d2Nal = N[C@H](Cc1ccc2ccccc2c1)C(=O)O
This section presents substances with their documented Unstimulated Basal GH release values.
Express your answer as a number followed by its unit.

Fill in: Unstimulated Basal GH release of [dA][d2Nal]AT[dT]K-NH2 [4-DAla-DβNal-Ala-Thr-DThr-Lys-NH2] is ___
288 ± 31 ng/mL

Fill in: Unstimulated Basal GH release of DcyclohexylAla-Ala-Trp-DPhe-NH2 [5-DcyclohexylAla-Ala-Trp-DPhe-NH2] is ___
354 ± 81 ng/mL

Fill in: Unstimulated Basal GH release of [d2Nal]AW[dF]L-NH2 [7-DβNal-Ala-Trp-DPhe-Leu-NH2] is ___
347 ± 66 ng/mL

Fill in: Unstimulated Basal GH release of [d2Nal]AW[dF]A-NH2 [1-DβNal-Ala-Trp-DPhe-Ala-NH2] is ___
713 ± 71 ng/mL

Fill in: Unstimulated Basal GH release of DAla-DcyclohexylAla-Ala-Phe-DPhe-Nle-NH2 is ___
393 ± 51 ng/mL

Fill in: Unstimulated Basal GH release of DcyclohexylAla-Ala-Phe-DTrp-Lys-NH2 [3-DcyclohexylAla-Ala-Phe-DTrp-Lys-NH2] is ___
346 ± 82 ng/mL

Fill in: Unstimulated Basal GH release of DAla-DβNal-Ala-Ala-DAla-Lys-NH2 [6-DAla-DβNal-Ala-Ala-DAla-Lys-NH2] is ___
172 ± 15 ng/mL

Fill in: Unstimulated Basal GH release of H[dW]FW[dF]K-NH2 [8-His-DTrp-Phe-Trp-DPhe-Lys-NH2] is ___
509 ± 48 ng/mL
